- experimental system: CDK6 (Homo sapiens, UniProt Q00534)
- Construct: Percentage values are normalized to DMSO-treated MM.1S cells and the respective loading controls; endogenous in cells; host or cells: MM.1S (human multiple myeloma)
- Sequence (Q00534 whole entry): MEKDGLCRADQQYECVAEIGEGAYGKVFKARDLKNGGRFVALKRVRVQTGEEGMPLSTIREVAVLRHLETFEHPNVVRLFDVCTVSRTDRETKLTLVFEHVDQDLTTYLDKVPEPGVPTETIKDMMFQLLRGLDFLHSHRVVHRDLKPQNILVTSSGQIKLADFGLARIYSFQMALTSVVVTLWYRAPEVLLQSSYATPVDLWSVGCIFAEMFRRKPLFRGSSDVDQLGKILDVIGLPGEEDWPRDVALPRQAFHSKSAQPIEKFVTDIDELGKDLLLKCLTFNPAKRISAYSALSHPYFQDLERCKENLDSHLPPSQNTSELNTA
- protocol text: CDK6 degradation, western blot of MM.1S cells
- Format: cell-based
- conditions used: MM1.S; 0.1 μM, 16 h, MM.1S cells, normalized to DMSO (100%); read-out: D CDK6: remaining CDK6 levels
Consider the following molecules; for each one, report its remaining activity at 0.1 µM.
Express it in %; write the number only.

-- ask Complete the entry with remaining activity at 0.1 µM for CC(=O)c1c(C)c2cnc(Nc3ccc(N4CCN(CCOCCOCCOCC(=O)N[C@H](C(=O)N5C[C@H](O)C[C@H]5C(=O)N[C@@H](C)c5ccc(-c6scnc6C)cc5)C(C)(C)C)CC4)cn3)nc2n(C2CCCC2)c1=O [27 (CST620)]
-- reply 1.7

-- ask Complete the entry with remaining activity at 0.1 µM for CC(=O)c1c(C)c2cnc(Nc3ccc(N4CCN(CCOCCOCC(=O)N[C@H](C(=O)N5C[C@H](O)C[C@H]5C(=O)NCc5ccc(-c6scnc6C)cc5)C(C)(C)C)CC4)cn3)nc2n(C2CCCC2)c1=O [compound 23]
-- reply 8.2
